Data origin: patent US6833372B2

assay: Pharmacokinetics in rats (jugular vein cannula, plasma LC-MS); assay type: in vivo, Rat; settings: female rat; 10 mg/kg as 5 mg/ml solution in 10% DMSO, 10% cremophor, 80% saline (footnote 5)
measure.name: FR Fp.o. (%^5)

Below: 2 compounds and their reported FR Fp.o..
compound | FR Fp.o. (%^5)
COc1nc(OC)c(NC(=O)c2ccc(Cc3cc4c(cc3C)C(C)(C)CCC4(C)C)o2)c(OC)n1 | 56
COc1nc(NCCCN(C)C)nc(OC)c1NC(=O)c1ccc(Cc2cc3c(cc2C)C(C)(C)OC3(C)C)o1 | 57

(A) CCN(CC)CCNc1nc(OC)c(NC(=O)c2ccc(Cc3cc4c(cc3C)C(C)(C)OC4(C)C)o2)c(OC)n1
(B) COc1nc(OCCO)nc(OC)c1NC(=O)c1ccc(Cc2cc3c(cc2C)C(C)(C)OC3(C)C)o1
(C) COc1nc(Nc2ccccc2)nc(OC)c1NC(=O)c1ccc(Cc2cc3c(cc2C)C(C)(C)OC3(C)C)o1 [Example D1]
(D) COc1nc(NCCCN2CCOCC2)nc(OC)c1NC(=O)c1ccc(Cc2cc3c(cc2Cl)C(C)(C)CCC3(C)C)o1
Order these by FR Fp.o., descending, and give the full ranking. Hello, could you send the labels back in the order asked? Thank you.
B, A, D, C

* * *

assay: Solubility at pH2 and pH6; type: physicochemical; conditions: pH 6, aqueous buffer, pH6; read-out: Solubility μg/ml pH6
measure.name: solubility (µg/mL)

compound | unit.abbrev | solubility
COc1nc(NCCCN2CCOCC2)nc(OC)c1NC(=O)c1ccc(Cc2cc3c(cc2C)C(C)(C)CCC3(C)C)o1 [Example B4] | µg/mL | 2.5

(1) COc1nc(N(C)C)nc(OC)c1NC(=O)c1ccc(Cc2cc3c(cc2C)C(C)(C)CCC3(C)C)o1 [Example B2]
(2) COc1nc(OC)c(NC(=O)c2ccc(Cc3cc4c(cc3C)C(C)(C)CCC4(C)C)o2)c(OC)n1 [Example C1]
(3) COCCOc1nc(OC)c(NC(=O)c2ccc(Cc3cc4c(cc3C)CCCC4(C)C)o2)c(OC)n1 [Example E1]
(4) COc1nc(NCCCN2CCOCC2)nc(OC)c1NC(=O)c1ccc(Cc2cc3c(cc2C)CCCC3(C)C)o1 [Example F1]
Order these by solubility, descending, and give the full ranking. Hello, could you send the labels back in the order asked? Thank you.
4, 3, 2, 1
(4: 12 µg/mL, 3: 2 µg/mL, 2: 1 µg/mL, 1: 0.4 µg/mL)

* * *

test: In vitro metabolism: disappearance of parent compound in dog liver microsomes; assay type: in vitro ADME; settings: 5 uM compound, 30 minutes 37° C.
measure.name: Dog % rem. 30′ (%)

smiles.record | measure.name | unit.abbrev | experimental.value
COc1nc(NCCN2CCCC2)nc(OC)c1NC(=O)c1ccc(Cc2cc3c(cc2C)C(C)(C)OC3(C)C)o1 | Dog % rem. 30′ | % | 98
COc1nc(NCCCN2CCOCC2)nc(OC)c1NC(=O)c1ccc(Cc2cc3c(cc2Cl)C(C)(C)CCC3(C)C)o1 | Dog % rem. 30′ | % | 70
COc1nc(NCCN2CCNCC2)nc(OC)c1NC(=O)c1ccc(Cc2cc3c(cc2C)C(C)(C)OC3(C)C)o1 | Dog % rem. 30′ | % | 98
COc1nc(NCCC#N)nc(OC)c1NC(=O)c1ccc(Cc2cc3c(cc2C)CCCC3(C)C)o1 | Dog % rem. 30′ | % | 85
